Catalogue of abundance fitness readings, one per entry.
B1: Far upstream element-binding protein 1, residues 184 to 257; numbered along this chain, Q96AE4 (parent)
chain: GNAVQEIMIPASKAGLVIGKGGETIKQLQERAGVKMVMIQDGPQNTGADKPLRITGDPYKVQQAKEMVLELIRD

# Variants of: B1
# assay method text: abundance fitness (aPCA) (normalised: wild type 0, dead -1); higher = more abundant; growth selection in yeast, the domain comes from the species named
# protocol conditions: Homo sapiens

For orientation, consider the following solved cases.
[[record]]
variant_identifier = "K26Y"
measured_endpoint = "abundance fitness"
result = -0.041

[[record]]
variant_identifier = "M36W"
measured_endpoint = "abundance fitness"
result = -1


[in] Can you share its abundance fitness? I mean this variant: L16T
[out] -0.058

[in] Item P43S has what recorded abundance fitness?
[out] 0.04

[in] Could you tell me which abundance fitness is on file for T46N ?
[out] -0.074

[in] GET /values?readout=abundance fitness&item= V68H
[out] -0.495

[in] Which abundance fitness is reported for this variant? A14H
[out] 0.034
